For reference, pIC50 measured on UniProt:P43490:
pIC50: −log10 of the molar value.
measurement-kind: pIC50

Prompt: Fill in: pIC50 of "CCOCCC(=O)N1CCC(Oc2ccc(NC(=O)C3CN(c4cccnc4)C3)cc2)CC1" is ___
Response: 8.98

Prompt: And the next one, "O=C(Nc1ccc(C2CCN(C(=O)Cc3ccccc3F)CC2)cc1)C1CN(c2cccnn2)C1" ?
Response: 9.17

I. N#Cc1ccc(C(=O)N2CCC(c3ccc(NC(=O)C4CN(c5cccnn5)C4)cc3)CC2)cc1
II. Cc1ncccc1N1CC(C(=O)Nc2ccc(C3CCN(C(=O)CCC(F)(F)F)CC3)cc2)C1
III. Cc1ccsc1C(=O)N1CCC(c2ccc(NC(=O)C3CN(c4cccnc4)C3)cc2)CC1
Prompt: List items by pIC50 in falling order. Sort and list the labels as requested.
Response: III, I, II
(III: 9.70, I: 9.33, II: 6.77)

a. CCC(C)(C)CN1CCC(c2ccc(NC(=O)C3CN(c4cccnc4)C3)cc2)CC1
b. O=C(Nc1ccc(OC2CCN(C(=O)CC3CCOCC3)CC2)cc1)C1CN(c2cnccc2F)C1
Prompt: Lowest pIC50? choose a or b # reply format: chosen label
Response: b
(b: 8.63, a: 9.19)

====

- measured-on: NAMPT (human, recombinant, C-terminally His-tagged) (Homo sapiens, UniProt P43490)
- Sequence (P43490 whole entry): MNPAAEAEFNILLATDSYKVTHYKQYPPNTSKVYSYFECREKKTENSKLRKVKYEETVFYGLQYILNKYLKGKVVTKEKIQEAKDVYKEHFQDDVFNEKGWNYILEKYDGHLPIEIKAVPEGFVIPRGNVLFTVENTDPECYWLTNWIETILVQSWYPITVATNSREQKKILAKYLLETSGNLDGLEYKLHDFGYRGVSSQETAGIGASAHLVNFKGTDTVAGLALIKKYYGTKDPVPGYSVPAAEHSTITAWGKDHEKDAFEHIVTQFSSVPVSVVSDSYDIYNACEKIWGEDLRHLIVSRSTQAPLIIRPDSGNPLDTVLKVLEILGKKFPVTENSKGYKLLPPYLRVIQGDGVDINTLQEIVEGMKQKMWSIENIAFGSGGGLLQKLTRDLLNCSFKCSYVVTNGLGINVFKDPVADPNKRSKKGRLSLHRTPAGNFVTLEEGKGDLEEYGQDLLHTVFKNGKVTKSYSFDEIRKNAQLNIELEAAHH
- protocol-notes: Time-Resolved Fluorescence Resonance Energy Transfer (TR-FRET) Binding Assay of NAMPT
- condition-set: 6.8 nM NAMPT, 200 nM probe, equilibrated 3 hours, absence of substrates
pIC50: −log10 of the molar value.
measurement-kind: pIC50

Prompt: Missing value: pIC50, NAMPT (human, recombinant, C-terminally His-tagged) (Homo sapiens, UniProt P43490), entry "CC1(C(=O)N2CCC(c3ccc(NC(=O)C4CN(c5cccnc5)C4)cc3)CC2)CC1" . Fill in?
Response: 8.18

Prompt: Request: "CC1(C(=O)N2CCC(c3ccc(NC(=O)C4CN(c5cccnn5)C4)cc3)CC2)CC1"
Response: 7.80

Prompt: # iterate: "O=C(Nc1ccc(C2CCN(C(=O)c3ccco3)CC2)cc1)C1CN(c2cccnc2)C1"
Response: 8.35

Prompt: Now try "O=C(Nc1ccc(C2CCN(C(=O)CC3CCOCC3)CC2)cc1)C1CN(c2cccnc2)C1" .
Response: 7.55

Prompt: And then "O=C(Nc1ccc(OC2CCN(C(=O)CC(F)(F)F)CC2)cc1)C1CN(c2ccnnc2)C1" , what is it?
Response: 6.92

A. COCCOCC(=O)N1CCC(c2ccc(NC(=O)C3CN(c4cccnn4)C3)cc2)CC1
B. Cc1ncccc1N1CC(C(=O)Nc2ccc(C3CCN(C(=O)CCN(C)C)CC3)cc2)C1
C. Cc1ncccc1N1CC(C(=O)Nc2ccc(C3CCN(C(=O)C(C)C(C)C)CC3)cc2)C1 (centres unmarked)
Prompt: Order the records, beginning with the lowest pIC50 and ending with the highest. Kindly provide the labels arranged according to the requested ordering.
Response: B, A, C
(B: 5.53, A: 6.68, C: 7.07)

====

What follows is a record of IC50 for NAMPT (Homo sapiens).
measurement-kind: IC50 (nM)

Prompt: IC50 lookup needed for "CN(C)CCC(=O)N1CCC(c2ccc(NC(=O)C3CN(c4cccnc4)C3)cc2)CC1" , thanks.
Response: 0.169

Prompt: Next entry: "O=C(Nc1ccc(C2CCN(C(=O)CCN3CCOCC3)CC2)cc1)C1CN(c2cccnc2)C1"
Response: 0.278

I. Cc1ccncc1N1CC(C(=O)Nc2ccc(C3CCN(C(=O)C(C)(C)O)CC3)cc2)C1
II. Cc1ncccc1N1CC(C(=O)Nc2ccc(C3CCN(C(=O)CC4CCCC4)CC3)cc2)C1
Prompt: Could you please tell me which of these two has the higher IC50: I or II ? Identify your pick by its label.
Response: II
(II: 71 nM, I: 7.34 nM)
